The values you see were collected from PubChem BioAssay.

- protocol: S. pombe growth modifiers, basal conditions – strain 972, OD600, 24 h, no modulator, primary screen (AID 1090);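 note: basal condition with compound alone and no growth modifier present; test concentration not given here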
- condition set: S. pombe 972 growth, higher = more signal, called active from +8 up or from −8 down
Recorded z-score values for a group of molecules are listed next.
Keep it simple and answer with nothing but the number.

Some solved cases for reference:
1) COC(=O)[C@@]1(Cc2ccccc2)[C@H]2c3cc(C(=O)N4CCCC4)n(CCc4ccccn4)c3C[C@H]2CN1C(=O)c1ccccc1; 0.741
2) CC(=O)NCCCC[C@@H]1NC(=O)[C@@H]2C[C@H](C(=O)NCCCCCN)[C@H](c3cccc(OCCO)c3)N2C1=O; -0.31
3) CO[C@H]1O[C@H](CO)[C@@H](OC(=O)Nc2ccccc2)[C@H](OC(=O)c2cc3ccccc3[nH]2)[C@H]1OC(=O)c1cc2ccccc2[nH]1; -0.562

Form field z-score, entry CC(C)(C)OC(=O)CC[C@@]1(C(=O)NCC(O)CO)N=C(c2ccc(OCCCO)cc2)O[C@@H]1c1ccccc1CN=[N+]=[N-] (stereo not given in full) : 0.0076

The reported z-score of the molecule COC(=O)c1c(CC[C@@H](CO)NC(=O)N[C@@H](C)Cn2cc(-c3ccccn3)nn2)oc(C(C)=O)c1C(=O)OC was -0.705

So, CC(C)[Si](C#CCCCC#N)(O[C@H](c1ccccc1)c1cn(Cc2ccccc2)nn1)C(C)C ? Its z-score was -2.74

Entry CCCCCCCCCCC(O)C1C=CC2C(=O)N(c3ccccc3)C(=O)C2N1Nc1ccc(C#N)cc1 (stereo not given) ; z-score = 0.53

Record C#CCN([C@@H](Cc1ccccc1)C(=O)OC)[C@@H](/C=C/C1CC1)[C@H](O)Cc1ccccc1 , field z-score: -1.22

The recorded z-score for entry CCCCC(O)C1C=CC2C(=O)N(C)C(=O)C2N1N(c1ccccc1)c1ccccc1 (stereo not given) equals 0.483

Input COC(=O)[C@@]1(Cc2ccc(F)cc2)[C@H]2c3cc(C(=O)N4CCCC4)n(Cc4ccc(C)c(F)c4F)c3C[C@H]2CN1C(=O)c1ccccc1 . Output z-score: -0.0098
